Catalogue of NanoBRET Abs IC50 values
Biological target: T1, B-cat-Halo (beta-catenin HaloTag NanoBRET construct expressed in HEK293 cells) (UniProt P35222 1-781, HaloTag NanoBRET 618 Ligand bound in the assay)
T1 sequence (looked up): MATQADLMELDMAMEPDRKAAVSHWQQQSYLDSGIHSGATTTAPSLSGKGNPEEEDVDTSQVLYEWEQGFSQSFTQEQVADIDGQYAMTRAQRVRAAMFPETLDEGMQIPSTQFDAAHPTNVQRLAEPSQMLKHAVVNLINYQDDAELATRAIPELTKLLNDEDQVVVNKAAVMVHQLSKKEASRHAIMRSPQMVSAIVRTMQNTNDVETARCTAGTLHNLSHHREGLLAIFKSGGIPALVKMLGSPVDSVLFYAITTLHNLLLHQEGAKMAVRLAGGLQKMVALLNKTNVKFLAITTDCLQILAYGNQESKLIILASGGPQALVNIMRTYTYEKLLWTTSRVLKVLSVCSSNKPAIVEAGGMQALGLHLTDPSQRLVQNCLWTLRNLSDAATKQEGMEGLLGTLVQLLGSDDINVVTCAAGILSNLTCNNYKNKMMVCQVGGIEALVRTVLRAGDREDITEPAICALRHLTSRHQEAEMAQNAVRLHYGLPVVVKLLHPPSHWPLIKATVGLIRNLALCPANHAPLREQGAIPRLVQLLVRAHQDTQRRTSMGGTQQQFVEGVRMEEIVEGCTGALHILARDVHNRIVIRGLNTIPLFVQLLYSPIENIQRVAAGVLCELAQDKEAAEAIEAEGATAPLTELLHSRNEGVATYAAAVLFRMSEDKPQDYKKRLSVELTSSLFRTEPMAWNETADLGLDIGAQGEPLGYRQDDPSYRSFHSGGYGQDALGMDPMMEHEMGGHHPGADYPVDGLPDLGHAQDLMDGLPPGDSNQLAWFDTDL
Assay: cell-based or functional assay
Starred links: 1 amine or outer side, 2 acyl side, 3 side chain; linkers in the order of their positions; H or OH if unused. Positions of bridges follow the written chain, without caps; N, C: chain ends. Non-standard residues stand in square brackets, D forms with d. Primed or numbered codes have the meaning given here. PyrS1 = (S)-3-amino-1-((but-3-en-1-yloxy)carbonyl)pyrrolidine-3-carboxylic acid, C=CCCOC(=O)N1CC[C@@](N[*:1])(C(=O)[*:2])C1; B5(19) = 2-amino-2-(pent-4-en-1-yl)hept-6-enoic acid (bis(4-pentenyl)glycine), C=CCCCC(CCCC=C)(N[*:1])C(=O)[*:2]; Bta = N[C@@H](Cc1csc2ccccc12)C(=O)O; αAllylPro = C=CC[C@@]1(C(=O)O)CCCN1; tBuAla = CC(C)(C)C[C@H](N)C(=O)O; 3Thi = N[C@@H](Cc1ccsc1)C(=O)O; S5 = C=CCCC[C@](C)(N)C(=O)O; Aib = CC(C)(N)C(=O)O

Observe how each entry below is paired with its result.
{"columns": ["BINDER", "PROPERTY", "MEASURED_RESULT"],
 "data": [
  ["Ac-[αAllylPro]D[tBuAla][B5(19)]DDAAFL[PyrS1][3Thi][Bta]Q-NH2 (staple 1-4, 4-11; not fully specified; printed as Ac-PL3-Asp-Npg-B5-Asp-Asp-Ala-Ala-Phe-Leu-PyrS1-3Thi-BztA-Gln-NH2) [I-1815]", "NanoBRET Abs IC50", "> 20 µM"],
  ["Ac-[αAllylPro]D[tBuAla][B5(19)]DDAAFN[PyrS1][3Thi][Bta]Q-NH2 (staple 1-4, 4-11; not fully specified; printed as Ac-PL3-Asp-Npg-B5-Asp-Asp-Ala-Ala-Phe-Asn-PyrS1-3Thi-BztA-Gln-NH2) [I-1813]", "NanoBRET Abs IC50", "> 20 µM"]
]}

Please turn your attention to the following entry.
Quick one: give measured NanoBRET Abs IC50 for Ac-[αAllylPro]D[tBuAla][S5]DDAAFL[Aib][3Thi][Bta]Q-NH2 (staple 1-4; not fully specified; printed as Ac-PL3-Asp-Npg-S5-Asp-Asp-Ala-Ala-Phe-Leu-Aib-3Thi-BztA-Gln-NH2) [I-1807] > 20 µM
